Source: paper PMC11201061

Test: in vitro
Settings: human, 25% human serum
Where a SMILES comes first, the peptide text is derived from it.

molecule	unit.string	remaining at 2 h, 100 µg/mL
N=C(N)NCCC[C@@H]1NC(=O)[C@H](CCCNC(=N)N)NC(=O)[C@H](CCCNC(=N)N)NC(=O)[C@H](Cc2c[nH]c3ccccc23)NC(=O)[C@H](Cc2c[nH]c3ccccc23)NC(=O)[C@H](Cc2c[nH]c3ccccc23)NC(=O)[C@H](Cc2c[nH]c3ccccc23)NC(=O)[C@H](CCCNC(=N)N)NC1=O [[R4W4]] (cyclo(RRRRWWWW))	%	93

* * *

Experiment: in vitro
Conditions: human, 25% human serum
Where a SMILES comes first, the peptide text is derived from it.

compound	unit.string	remaining at 12 h, 100 µg/mL
N=C(N)NCCC[C@@H]1NC(=O)[C@H](CCCNC(=N)N)NC(=O)[C@H](CCCNC(=N)N)NC(=O)[C@H](Cc2c[nH]c3ccccc23)NC(=O)[C@H](Cc2c[nH]c3ccccc23)NC(=O)[C@H](Cc2c[nH]c3ccccc23)NC(=O)[C@H](Cc2c[nH]c3ccccc23)NC(=O)[C@H](CCCNC(=N)N)NC1=O [[R4W4]] (cyclo(RRRRWWWW))	%	77

* * *

Test: in vitro
Conditions: human, 25% human serum
Where a SMILES comes first, the peptide text is derived from it.

compound	remaining at 6 h, 100 µg/mL (%)
N=C(N)NCCC[C@@H]1NC(=O)[C@H](CCCNC(=N)N)NC(=O)[C@H](CCCNC(=N)N)NC(=O)[C@H](Cc2c[nH]c3ccccc23)NC(=O)[C@H](Cc2c[nH]c3ccccc23)NC(=O)[C@H](Cc2c[nH]c3ccccc23)NC(=O)[C@H](Cc2c[nH]c3ccccc23)NC(=O)[C@H](CCCNC(=N)N)NC1=O [[R4W4]] (cyclo(RRRRWWWW))	80
